System: Anemic Decerebrate Rigidity Sample (EMG, M. triceps brachii)
Test: Effects on Anemic Decerebrate Rigidity Sample (suppression of EMG of forelimb muscle)
Format: in vivo, Wistar male rats
Conditions: iv, 10 min; rat, 3 mg/kg in physiological saline through femoral vein, 10 minutes after administration; read-out: Suppression rate
Where a name gives a salt, the structure may show the parent alone.

| compound | inhibition in vivo at 3 mg/kg (%) |
| --- | --- |
| Cc1ccc(C(=O)C(C)CN2CCCCC2)cc1 (stereo not drawn) [Comparative compound 1, toluperisone hydrochloride, reference compound] | 4.8 |
| C[C@@H]1[C@H](c2ccccc2)OC(=O)N1CCN1CCCCC1.Cl (racemic) [Comparative compound 2, hydrochloride, reference compound] | 3.6 |
| CC(C)[C@@H]1[C@H](c2ccccc2)OC(=O)N1CCCN1CCCCC1 (racemic) | 12 |
